Hello, the source for this data is DBAASP, in case you need it.

# System: Pseudomonas aeruginosa ATCC 9027
# assay-details: ≥ marks a high value that may be exact or a test limit, other limits are often not marked, values filed in µg/mL are converted to µM
outcome-measure: MIC (µM)
Give bare numbers, in µM.

Use these answered entries as a reference point.
CC[C@H](C)[C@H](NC(=O)[C@H](CCCCN)NC(=O)[C@H](CCCCN)NC(=O)[C@H](C)NC(=O)[C@@H](NC(=O)[C@H](C)NC(=O)CNC(=O)[C@H](CC(C)C)NC(=O)[C@H](C)NC(=O)[C@H](CCCCN)NC(=O)[C@H](CC(C)C)NC(=O)[C@H](CC(N)=O)NC(=O)[C@@H](N)CC(C)C)C(C)C)C(=O)N[C@@H](CC(C)C)C(N)=O: 32
CC(C)C[C@H](NC(=O)[C@H](CCCCN)NC(=O)[C@H](C)NC(=O)[C@H](CC(C)C)NC(=O)[C@H](CCCCN)NC(=O)[C@H](CC(C)C)NC(=O)[C@H](C)NC(=O)[C@H](CC(C)C)NC(=O)[C@H](CCCCN)NC(=O)[C@H](C)NC(=O)[C@H](CC(C)C)NC(=O)[C@H](CCCCN)NC(=O)[C@H](CCCCN)NC(=O)[C@H](C)NC(=O)[C@@H](N)Cc1ccccc1)C(N)=O: 3.02

From here, focus on the item given below.
For the compound `CC(C)[C@H](NC(=O)[C@H](CS)NC(=O)[C@@H](NC(=O)[C@H](CCCN=C(N)N)NC(=O)[C@H](CCCCN)NC(=O)CNC(=O)[C@H](CC(N)=O)NC(=O)[C@@H](N)CS)C(C)C)C(=O)N[C@@H](CS)C(=O)N[C@@H](CCCN=C(N)N)C(N)=O` , give its reported MIC.
44
